target: UniProt:P08253
Sequence (P08253 whole entry): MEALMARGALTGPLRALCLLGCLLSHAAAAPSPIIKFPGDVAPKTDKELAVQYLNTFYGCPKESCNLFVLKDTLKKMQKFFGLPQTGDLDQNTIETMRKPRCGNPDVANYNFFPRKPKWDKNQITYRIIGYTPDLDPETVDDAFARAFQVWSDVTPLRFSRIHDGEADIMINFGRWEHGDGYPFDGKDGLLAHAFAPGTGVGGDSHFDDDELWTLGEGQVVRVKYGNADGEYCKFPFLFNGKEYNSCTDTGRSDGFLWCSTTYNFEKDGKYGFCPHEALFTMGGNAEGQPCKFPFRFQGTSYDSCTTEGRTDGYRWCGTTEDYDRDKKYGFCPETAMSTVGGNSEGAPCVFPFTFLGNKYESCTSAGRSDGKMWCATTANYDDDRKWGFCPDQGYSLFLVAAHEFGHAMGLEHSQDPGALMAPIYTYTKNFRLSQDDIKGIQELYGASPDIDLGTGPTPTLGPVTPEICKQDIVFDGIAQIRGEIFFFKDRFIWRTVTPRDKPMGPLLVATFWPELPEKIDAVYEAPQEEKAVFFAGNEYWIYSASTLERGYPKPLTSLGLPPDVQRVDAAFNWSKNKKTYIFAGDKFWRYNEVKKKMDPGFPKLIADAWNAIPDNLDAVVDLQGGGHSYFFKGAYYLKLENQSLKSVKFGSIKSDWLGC
OUTCOME_MEASURE: pKi
Friendly reminder that pKi comes from taking -log10 of the concentration in mol/L.

Some molecules with recorded pKi:
MOL: Cc1ccc(S(=O)(=O)NC(=O)N(CC(=O)NO)Cc2ccc([N+](=O)[O-])cc2)cc1
ASSAY_TARGET: UniProt:P08253
pKi: 8.22
//
MOL: CC(C)(C)OC(=O)Nc1cccc(S(=O)(=O)N(CC(=O)NO)Cc2ccc([N+](=O)[O-])cc2)c1
ASSAY_TARGET: UniProt:P08253
pKi: 7.96

Now for a further molecule.
Entry `O=C(CN(Cc1ccc([N+](=O)[O-])cc1)C(=O)Nc1ccc(Cl)c(Cl)c1)NO` under UniProt:P08253 had pKi of 8.22
